Measured IC50, listed per entry.
Biological target: T1, human PD-1 expressed on cells (human, UniProt Q15116 25-288)
T1 construct: whole, on cells; also called CHO-K1/huPD-1; CHO-K1-hPD-1 cells
T1 sequence (Q15116 25-288): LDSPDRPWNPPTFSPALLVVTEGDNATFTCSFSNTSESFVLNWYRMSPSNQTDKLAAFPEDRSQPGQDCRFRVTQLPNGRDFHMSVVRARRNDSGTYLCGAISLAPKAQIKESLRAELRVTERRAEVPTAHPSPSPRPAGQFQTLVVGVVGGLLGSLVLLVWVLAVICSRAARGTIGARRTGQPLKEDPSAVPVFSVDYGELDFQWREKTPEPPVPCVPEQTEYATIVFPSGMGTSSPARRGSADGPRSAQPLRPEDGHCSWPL
Test: cell RBA FACS, CHO-K1-huPD1; competitor biotin-PD-L2/Fc
The reply should contain only the number, in nM.

HumAb709-9 (antibody, human IgG1, kappa, L234A L235A, V domains shown, humanized mAb709) VH: EVQLVESGGGLVQPGGSLRLSCAASGFTFSFYTMSWVRQAPGKRLEWVATISGGGRDTYYPDSVKGRFTISRDNAKNSLYLQMNSLRAEDTAVYYCAGQGGNYLFAYWGQGTLVTVSS VL: DIVMTQSPSSLSASVGDRVTITCKASQDVNTVVAWYQQKPGKAPKVLISWASTRHTGVPSRFSGSGSGTDYTLTISSLQPEDFATYYCQQHYTTPYTFGGGTKVEIKR: 1.76

Would you kindly look at the next entry?
Prompt: I have this binder here, HumAb709-12 (antibody, human IgG1, kappa, L234A L235A, V domains shown, humanized mAb709; also called HuntAb709-12) VH: EVQLVESGGGLVQPGGSLRLSCAASGFTFSFYTMSWVRQAPGKRLEWVATISGGGRDTYYPDSVKGRFTISRDNAKNSLYLQMNSLRAEDTAVYYCAGQGGNYLFAYWGQGTLVTVSS VL: DIVMTQSPSSLSASVGDRVTITCKASQDVNTVVAWYQQKPGKAPKVLISWASTRHTGVPSRFTGSGSGTDYTLTISSLQPEDFATYYCQQHYTTPYTFGGGTKVEIKR , and I need its recorded IC50.
Completion: 1.35
